# TARGET_SYSTEM: Integrin alpha-V/beta-3 (Homo sapiens, UniProt P05106+P06756)
# Sequence (P05106 27-788 limits assumed): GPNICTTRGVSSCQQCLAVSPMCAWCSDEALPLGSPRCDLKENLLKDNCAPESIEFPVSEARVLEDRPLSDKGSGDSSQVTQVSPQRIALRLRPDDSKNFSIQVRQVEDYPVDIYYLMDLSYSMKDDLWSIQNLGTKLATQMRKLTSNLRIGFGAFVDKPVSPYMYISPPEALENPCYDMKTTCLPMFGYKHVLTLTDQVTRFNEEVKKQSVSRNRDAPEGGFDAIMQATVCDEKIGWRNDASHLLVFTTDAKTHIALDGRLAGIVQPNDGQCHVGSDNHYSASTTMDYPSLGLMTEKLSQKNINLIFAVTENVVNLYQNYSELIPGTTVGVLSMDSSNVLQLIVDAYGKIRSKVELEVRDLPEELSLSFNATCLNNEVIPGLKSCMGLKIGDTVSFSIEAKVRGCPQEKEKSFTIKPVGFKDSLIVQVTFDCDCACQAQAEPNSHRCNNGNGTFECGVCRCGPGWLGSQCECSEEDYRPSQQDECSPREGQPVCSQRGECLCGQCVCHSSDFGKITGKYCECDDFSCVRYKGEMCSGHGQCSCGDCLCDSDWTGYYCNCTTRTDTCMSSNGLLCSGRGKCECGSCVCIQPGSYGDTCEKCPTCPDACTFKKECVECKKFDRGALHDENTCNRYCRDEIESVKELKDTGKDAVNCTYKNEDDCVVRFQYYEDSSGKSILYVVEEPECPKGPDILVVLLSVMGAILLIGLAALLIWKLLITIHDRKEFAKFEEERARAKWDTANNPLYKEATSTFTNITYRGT
# Sequence (P06756 31-889 limits assumed): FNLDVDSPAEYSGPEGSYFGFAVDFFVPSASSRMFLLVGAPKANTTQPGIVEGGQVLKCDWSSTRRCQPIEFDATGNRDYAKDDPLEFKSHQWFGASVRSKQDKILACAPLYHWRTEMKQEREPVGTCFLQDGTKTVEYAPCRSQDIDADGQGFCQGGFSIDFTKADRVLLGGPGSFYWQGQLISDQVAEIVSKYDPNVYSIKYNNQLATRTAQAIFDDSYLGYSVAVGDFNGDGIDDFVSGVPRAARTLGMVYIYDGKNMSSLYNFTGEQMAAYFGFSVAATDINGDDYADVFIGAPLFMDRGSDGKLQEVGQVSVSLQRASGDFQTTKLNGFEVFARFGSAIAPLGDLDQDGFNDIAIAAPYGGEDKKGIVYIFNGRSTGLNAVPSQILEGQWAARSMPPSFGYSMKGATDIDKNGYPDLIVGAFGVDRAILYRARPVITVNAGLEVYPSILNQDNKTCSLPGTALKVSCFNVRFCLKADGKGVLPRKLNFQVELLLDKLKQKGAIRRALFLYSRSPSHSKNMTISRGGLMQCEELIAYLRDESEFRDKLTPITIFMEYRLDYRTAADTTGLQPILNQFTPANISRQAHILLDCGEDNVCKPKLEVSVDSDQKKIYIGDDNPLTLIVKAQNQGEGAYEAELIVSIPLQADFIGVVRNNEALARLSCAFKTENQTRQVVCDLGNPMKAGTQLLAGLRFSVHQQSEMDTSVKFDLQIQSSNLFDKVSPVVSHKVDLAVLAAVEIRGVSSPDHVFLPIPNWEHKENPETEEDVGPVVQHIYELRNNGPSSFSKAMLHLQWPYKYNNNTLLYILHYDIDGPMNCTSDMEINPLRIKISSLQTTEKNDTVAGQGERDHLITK
# Sequence (P06756 891-1048 limits assumed): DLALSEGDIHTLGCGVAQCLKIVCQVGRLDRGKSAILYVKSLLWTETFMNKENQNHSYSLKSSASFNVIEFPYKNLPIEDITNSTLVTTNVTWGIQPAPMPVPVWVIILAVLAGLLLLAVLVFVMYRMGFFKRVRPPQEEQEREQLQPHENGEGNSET
# TEST_DESCRIPTION: Inhibition of alphavbeta3 integrin-mediated cell adhesion in HUVEC on vitronectin coated plate after 30 mins
ENDPOINT: IC50 (nM)

(a) N=C(N)NCCC[C@@H]1NC(=O)CC(=O)N[C@@H](CC(=O)O)C(=O)N[C@@H](Cc2ccccc2)CNC1=O
(b) N=C(N)NCCC[C@H]1NC(=O)CC(=O)N[C@@H](CC(=O)O)C(=O)N[C@@H](Cc2ccccc2)CNC1=O
(c) N=C(N)NCCC[C@@H]1NC(=O)CC(=O)N[C@H](CC(=O)O)C(=O)N[C@H](Cc2ccccc2)CNC1=O
Kindly order the items shown according to IC50, from the highest value down. Enter labels, ranked according to the request.
a, b, c
